assayed.target: UniProt:P35916
Sequence (P35916 whole entry): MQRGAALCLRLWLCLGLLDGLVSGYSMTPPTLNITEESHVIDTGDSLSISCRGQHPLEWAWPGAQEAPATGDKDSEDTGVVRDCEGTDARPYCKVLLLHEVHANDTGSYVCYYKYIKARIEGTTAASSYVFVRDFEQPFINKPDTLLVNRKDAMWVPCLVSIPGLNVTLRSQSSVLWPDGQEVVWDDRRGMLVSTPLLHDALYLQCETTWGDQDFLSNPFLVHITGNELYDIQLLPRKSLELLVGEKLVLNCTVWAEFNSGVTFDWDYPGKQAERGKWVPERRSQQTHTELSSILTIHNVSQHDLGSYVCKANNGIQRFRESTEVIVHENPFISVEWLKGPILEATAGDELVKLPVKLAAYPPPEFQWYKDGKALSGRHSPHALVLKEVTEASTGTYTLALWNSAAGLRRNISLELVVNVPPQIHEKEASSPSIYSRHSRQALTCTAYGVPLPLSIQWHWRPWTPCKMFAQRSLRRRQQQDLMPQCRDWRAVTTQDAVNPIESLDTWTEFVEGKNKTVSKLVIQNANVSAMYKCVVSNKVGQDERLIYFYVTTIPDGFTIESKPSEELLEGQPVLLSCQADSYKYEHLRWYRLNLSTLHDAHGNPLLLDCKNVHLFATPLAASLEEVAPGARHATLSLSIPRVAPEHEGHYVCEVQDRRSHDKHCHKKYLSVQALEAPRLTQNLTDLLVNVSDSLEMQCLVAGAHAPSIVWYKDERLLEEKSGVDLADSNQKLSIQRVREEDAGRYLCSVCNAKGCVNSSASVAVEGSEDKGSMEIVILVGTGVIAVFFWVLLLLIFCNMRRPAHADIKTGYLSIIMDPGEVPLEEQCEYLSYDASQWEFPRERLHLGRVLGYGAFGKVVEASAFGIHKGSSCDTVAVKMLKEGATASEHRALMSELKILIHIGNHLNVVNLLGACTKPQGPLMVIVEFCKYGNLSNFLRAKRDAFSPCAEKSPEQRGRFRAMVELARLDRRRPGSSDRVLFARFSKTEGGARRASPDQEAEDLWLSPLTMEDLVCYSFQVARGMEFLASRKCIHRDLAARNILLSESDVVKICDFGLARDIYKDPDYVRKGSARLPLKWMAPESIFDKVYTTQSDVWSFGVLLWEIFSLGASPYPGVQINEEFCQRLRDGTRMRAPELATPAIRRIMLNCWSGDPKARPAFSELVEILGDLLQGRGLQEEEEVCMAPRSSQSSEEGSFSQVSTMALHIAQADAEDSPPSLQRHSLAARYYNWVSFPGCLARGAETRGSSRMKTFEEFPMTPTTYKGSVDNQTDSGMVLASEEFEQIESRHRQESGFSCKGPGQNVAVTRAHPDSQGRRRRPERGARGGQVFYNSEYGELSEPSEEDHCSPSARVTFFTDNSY
recorded.metric: IC50

• CN1CCN(c2ccc(OC(F)(F)F)c(Nc3nccc(-c4cc5c(n4C)CCNC5=O)n3)c2)CC1 = > 10 µM

====

Parameter IC50: see the listing below.
assayed.target: Cyclin-dependent kinase 2/cyclin E1 (Homo sapiens)
protocol: Inhibition of CDK2/cyclin E
recorded.metric: IC50

• CN1CCN(c2ccc(OC(F)(F)F)c(Nc3nccc(-c4cc5c(n4C)CCNC5=O)n3)c2)CC1 = > 10 µM
• CN1CCN(c2ccc(OC(F)(F)F)c(Nc3nccc(-c4cc(C(N)=O)cn4C)n3)c2)CC1 = > 10 µM

====

assayed.target: Cyclin-dependent kinase 5 activator 1 (Homo sapiens, UniProt Q15078)
Sequence (Q15078 whole entry): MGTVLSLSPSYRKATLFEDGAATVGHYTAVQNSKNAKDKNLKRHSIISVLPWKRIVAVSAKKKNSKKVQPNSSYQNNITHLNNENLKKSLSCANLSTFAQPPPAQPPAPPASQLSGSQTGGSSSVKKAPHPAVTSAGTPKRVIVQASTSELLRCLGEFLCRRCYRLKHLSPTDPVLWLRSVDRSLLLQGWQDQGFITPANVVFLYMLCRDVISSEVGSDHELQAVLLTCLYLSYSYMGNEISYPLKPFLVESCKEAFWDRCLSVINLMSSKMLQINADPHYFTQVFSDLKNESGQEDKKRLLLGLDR
recorded.metric: IC50

- CN1CCN(c2ccc(OC(F)(F)F)c(Nc3nccc(-c4cc(C(N)=O)cn4C)n3)c2)CC1: > 10 µM
- CN1CCN(c2ccc(OC(F)(F)F)c(Nc3nccc(-c4cc5c(n4C)CCNC5=O)n3)c2)CC1: > 10 µM
